Tested on: multi-resistant Staphylococcus aureus 206 (MRSA-206)
Assay: paper diffusion method drug sensitivity test, MRSA-206
Type: cell-based
Conditions: 30 μg/tablet, paper 6.35 mm diameter, LB plate, 37° C., 24 h; >17 mm sensitive, 15 mm-16 mm intermediary, <14 mm drug resistance
Let's look at some compounds and their measured Zone of inhibition, MRSA-206.
Reply with just the number (in mm).

O=C(O)c1cn(C2CC2)c2cc(Cl)c(F)cc2c1=O : 0
CN[C@H](CC(C)C)C(=O)N[C@H]1C(=O)N[C@@H](CC(N)=O)C(=O)N[C@H]2C(=O)N[C@H]3C(=O)N[C@H](C(=O)N[C@H](C(=O)O)c4cc(O)cc(O)c4-c4cc3ccc4O)[C@H](O)c3ccc(c(Cl)c3)Oc3cc2cc(c3O[C@@H]2O[C@H](CO)[C@@H](O)[C@H](O)[C@H]2O[C@H]2C[C@](C)(N)[C@H](O)[C@H](C)O2)Oc2ccc(cc2Cl)[C@H]1O [Vancomycin] : 15
C=C[C@]1(C)C[C@@H](OC(=O)COC(=O)C2CN(C3CC3)c3cc(Cl)c(F)cc3C2=O)[C@]2(C)CC[C@@H](C)[C@@]3(CCC(=O)[C@@H]23)[C@@H](C)[C@@H]1O (stereo partly shown) : 16

Please fill in: Zone of inhibition, MRSA-206 reported for C=C[C@]1(C)C[C@@H](OC(=O)CO)[C@]2(C)[C@H](C)CC[C@]3(CCC(=O)[C@H]32)[C@@H](C)[C@@H]1O [Pleuromulin] = 0

====

Tested on: multi-resistant Staphylococcus aureus 596 (MRSA-596)
Experiment: paper diffusion method drug sensitivity test, MRSA-596
Type: cell-based
Conditions: 30 μg/tablet, paper 6.35 mm diameter, LB plate, 37° C., 24 h; >17 mm sensitive, 15 mm-16 mm intermediary, <14 mm drug resistance
Let's look at some compounds and their measured Zone of inhibition, MRSA-596.
Reply with just the number (in mm).

O=C(O)c1cn(C2CC2)c2cc(Cl)c(F)cc2c1=O : 0

Please fill in: Zone of inhibition, MRSA-596 reported for C=C[C@]1(C)C[C@@H](OC(=O)COC(=O)C2CN(C3CC3)c3cc(Cl)c(F)cc3C2=O)[C@]2(C)CC[C@@H](C)[C@@]3(CCC(=O)[C@@H]23)[C@@H](C)[C@@H]1O (stereo partly shown) = 25

Please fill in: Zone of inhibition, MRSA-596 reported for C=C[C@]1(C)C[C@@H](OC(=O)CO)[C@]2(C)[C@H](C)CC[C@]3(CCC(=O)[C@H]32)[C@@H](C)[C@@H]1O = 0

Please fill in: Zone of inhibition, MRSA-596 reported for CN[C@H](CC(C)C)C(=O)N[C@H]1C(=O)N[C@@H](CC(N)=O)C(=O)N[C@H]2C(=O)N[C@H]3C(=O)N[C@H](C(=O)N[C@H](C(=O)O)c4cc(O)cc(O)c4-c4cc3ccc4O)[C@H](O)c3ccc(c(Cl)c3)Oc3cc2cc(c3O[C@@H]2O[C@H](CO)[C@@H](O)[C@H](O)[C@H]2O[C@H]2C[C@](C)(N)[C@H](O)[C@H](C)O2)Oc2ccc(cc2Cl)[C@H]1O = 23

====

System: multi-resistant Staphylococcus aureus 575 (MRSA-575)
Experiment: paper diffusion method drug sensitivity test, MRSA-575
Type: cell-based
Settings: 30 μg/tablet, paper 6.35 mm diameter, LB plate, 37° C., 24 h; >17 mm sensitive, 15 mm-16 mm intermediary, <14 mm drug resistance
Method: The antimicrobial efficacy was determined by a paper diffusion method drug sensitivity test. Experimental strains: multi-resistant Staphylococcus aureus 206 (MRSA-206), multi-resistant Staphylococcus aureus 575 (MRSA-575), multi-resistant Staphylococcus aureus 596 (MRSA-596). The experimental strain was identified by Huashan Hospital Affiliated to Fudan University (Institute of Antibiotic of Fudan University). […]
parameter measured: Zone of inhibition, MRSA-575 (mm)
Reply with just the number (in mm).

Examples with answers:
O=C(O)c1cn(C2CC2)c2cc(Cl)c(F)cc2c1=O : 0
C=C[C@]1(C)C[C@@H](OC(=O)COC(=O)C2CN(C3CC3)c3cc(Cl)c(F)cc3C2=O)[C@]2(C)CC[C@@H](C)[C@@]3(CCC(=O)[C@@H]23)[C@@H](C)[C@@H]1O (stereo partly shown) : 12
C=C[C@]1(C)C[C@@H](OC(=O)CO)[C@]2(C)[C@H](C)CC[C@]3(CCC(=O)[C@H]32)[C@@H](C)[C@@H]1O [Pleuromulin] : 0

CN[C@H](CC(C)C)C(=O)N[C@H]1C(=O)N[C@@H](CC(N)=O)C(=O)N[C@H]2C(=O)N[C@H]3C(=O)N[C@H](C(=O)N[C@H](C(=O)O)c4cc(O)cc(O)c4-c4cc3ccc4O)[C@H](O)c3ccc(c(Cl)c3)Oc3cc2cc(c3O[C@@H]2O[C@H](CO)[C@@H](O)[C@H](O)[C@H]2O[C@H]2C[C@](C)(N)[C@H](O)[C@H](C)O2)Oc2ccc(cc2Cl)[C@H]1O [Vancomycin] on multi-resistant Staphylococcus aureus 575 (MRSA-575) gives Zone of inhibition, MRSA-575 = 17
